tested-target: T1, huNav157chim14 (human)
T1 construct: HEK Flp-In cells; also called huNav157 chimera 14
procedure-summary: binding FACS, HEK Flp-In
Task for the reader: assign each of the following binders its reported MFI.
Give bare numbers, in MFI.

Take a look at these entries with their results.
binder	MFI [MFI]
F0103PMP492E09 (bispecific antibody, crude periplasmic extract; also called F103275B05(N93R)-50GS-F0103492E09 bivalent ISVD) EVQLVESGGGLVQPGGSLRLSCAASGSIFNINSMAWYRRAPGKQRELVASSTNGGSTNYADSVKGRFTISRDNAKRVYLQMNSLTPEDTAVYYCRALLQPSIYDISRTYWGQGTLVTVSSGGGGSGGGGSGGGGSGGGGSGGGGSGGGGSGGGGSGGGGSGGGGSGGGGSEVQLVESGGGLVQAGGSLRLSCAASKSILSFAYMRWYRQAPGKQREFVASIAIGGATSYTDSVKGRFTISRDNAKNTVYLQMNSLKPEDTAVYYCSAPAGQYRGQGTLVTVSSAAADYKDHDGDYKDHDIDYKDDDDKGAAHHHHHHKAAGGGGG	58400
F0103PMP478E09 (bispecific antibody, Screened as crude periplasmic extract; also called F103275B05(N93R)-50GS-F0103478E09 bivalent ISVD) EVQLVESGGGLVQPGGSLRLSCAASGSIFNINSMAWYRRAPGKQRELVASSTNGGSTNYADSVKGRFTISRDNAKRVYLQMNSLTPEDTAVYYCRALLQPSIYDISRTYWGQGTLVTVSSGGGGSGGGGSGGGGSGGGGSGGGGSGGGGSGGGGSGGGGSGGGGSGGGGSEVQLVESGGGLVQAGGSLRLSCAASGRAFSTLAMGWFRQAPGKEREFVAAISRNGNNSATGDSLKGRFTISRDSTKSTVFLQMNTLKPEDTAVYYCAAISTPSASHPYVRKESYRYWGQGTQVTVSSAAADYKDHDGDYKDHDIDYKDDDDKGAAHHHHHHKAAGGGGG	799
F010300702 (bispecific antibody, V domains shown, not shown: small tags and cut ends, also called F010300702 (n = 15); control bivalent ISVD) VH: EVQLVESGGGLVQPGGSLRLSCAASGSIFNINSMAWYRRAPGKQRELVASSTNGGSTNYADSVKGRFTISRDNAKRVYLQMNSLTPEDTAVYYCRALLQPSIYDISRTYWGQGTLVTVSS	27700

Please look at the following binder next.
Problem: Which value of MFI has been reported for F0103PMP505D08 (bispecific antibody, crude periplasmic extract; also called F103275B05(N93R)-50GS-F0103505D08 bivalent ISVD) EVQLVESGGGLVQPGGSLRLSCAASGSIFNINSMAWYRRAPGKQRELVASSTNGGSTNYADSVKGRFTISRDNAKRVYLQMNSLTPEDTAVYYCRALLQPSIYDISRTYWGQGTLVTVSSGGGGSGGGGSGGGGSGGGGSGGGGSGGGGSGGGGSGGGGSGGGGSGGGGSEVQLVESGGGLVQAGGSLRLSCVTSGRTSDLSTMNWFRQAPGKEREFVARITRRGSTYYAESVKERFIISRDNAKNTVYLQMNSLKPEDTANYYCTAASEMGYHYRGQGTQVTVSSAAADYKDHDGDYKDHDIDYKDDDDKGAAHHHHHHKAAGGGGG in the records?
Result: 78400
